test system: Ehrlich carcinoma; experiment: Antitumor effect, survival of tumor-inoculated mice; format: in vivo, ICR mice; settings: Mus musculus, ip, 240 h, 1.0 mg/kg/day, intraperitoneally, once a day for 10 days, read-out: percentage of mean survival time of test and control animals
READOUT_KIND: response vs control in vivo at 1 mg/kg/day

COMPOUND	SYSTEM	VALUE_OBSERVED
C/C=C/C=C/c1cc2cc3c(c(O)c2c(=O)[nH]1)C1(CC3)C(=O)c2c(OC(=O)c3ccc(Cl)cc3)c3c(c(OC(=O)c4ccc(Cl)cc4)c2C1=O)C(=O)C(OC)=CC3=O (stereo not shown)	Ehrlich carcinoma	> 198%
C/C=C/C=C/c1cc2cc3c(c(O)c2c(=O)[nH]1)C1(CC3)C(=O)c2c(OC(=O)CC(C)C)c3c(c(OC(=O)CC(C)C)c2C1=O)C(=O)C(OC)=CC3=O (stereo not shown) [Compound 2, Fredericamycin A diisovalerate]	Ehrlich carcinoma	> 168%
C/C=C/C=C/c1cc2cc3c(c(O)c2c(=O)[nH]1)C1(CC3)C(=O)c2c(OC(=O)c3ccccc3)c3c(c(OC(=O)c4ccccc4)c2C1=O)C(=O)C(OC)=CC3=O (stereo not shown)	Ehrlich carcinoma	> 199%

Query: Suppose we examine the compound C/C=C/C=C/c1cc2cc3c(c(O)c2c(=O)[nH]1)C1(CC3)C(=O)c2c(OC(=O)c3ccc(OC)cc3)c3c(c(OC(=O)c4ccc(OC)cc4)c2C1=O)C(=O)C(OC)=CC3=O (stereo not shown) ; what response vs control in vivo at 1 mg/kg/day value has been reported?
Reply: 171%

----------
assay: physchem; format: physicochemical; conditions: 3 hrs.; 10 μg/ml in dimethylsulfoxide/physiological saline; read-out: Percentage remainder
READOUT_KIND: remaining at 3 h (%)
Just the number please, in %, no unit attached.

Sample answers from the record:
MOLECULE	UNIT_OF_MEASUREMENT	remaining at 3 h
CCCCCc1cc2cc3c(c(O)c2c(=O)[nH]1)C1(CC3)C(=O)c2c(c(OC(C)=O)c3c(OC(C)=O)c(OC)cc(OC(C)=O)c3c2OC(C)=O)C1=O (stereo not shown)	%	99
C/C=C/C=C/c1cc2cc3c(c(O)c2c(=O)[nH]1)C1(CC3)C(=O)c2c(OC(=O)CCCCC)c3c(c(OC(=O)CCCCC)c2C1=O)C(=O)C(OC)=CC3=O (stereo not shown)	%	93.2
CCCCCCCCCCCC(=O)Oc1c2c(c(OC(=O)CCCCCCCCCCC)c3c1C(=O)C1(CCc4cc5cc(CCCCC)[nH]c(=O)c5c(O)c41)C3=O)C(=O)C(OC)=CC2=O (stereo not shown)	%	95.3

Query: Suppose we examine the molecule C/C=C/C=C/c1cc2cc3c(c(O)c2c(=O)[nH]1)C1(CC3)C(=O)c2c(O)c3c(c(O)c2C1=O)C(=O)C(OC)=CC3=O (stereo not shown) ; what remaining at 3 h value has been reported?
Reply: 78.9

----------
Experiment: physchem
Type: physicochemical
Conditions: 24 hrs.; 10 μg/ml in dimethylsulfoxide/physiological saline; read-out: Percentage remainder
Description: The stability of some Fredericamycin A derivatives and Fredericamycin A in their aqueous solutions were tested in accordance with the following procedures. The test compounds were individually dissolved in dimethylsulfoxide, followed by dilution of the resulting solutions with physiological saline to adjust the final concentrations of the test compounds and Fredericamycin to 10 μg/ml respectively. […]
Below, each of the molecules is paired with its reported remaining at 24 h value.
Just the number please, in %, no unit attached.

Sample answers from the record:
MOLECULE	UNIT_OF_MEASUREMENT	remaining at 24 h
C/C=C/C=C/c1cc2cc3c(c(O)c2c(=O)[nH]1)C1(CC3)C(=O)c2c(O)c3c(c(O)c2C1=O)C(=O)C(OC)=CC3=O (stereo not shown) [Fredericamycin A]	%	38.1
C/C=C/C=C/c1cc2cc3c(c(O)c2c(=O)[nH]1)C1(CC3)C(=O)c2c(OC(=O)CCCCC)c3c(c(OC(=O)CCCCC)c2C1=O)C(=O)C(OC)=CC3=O (stereo not shown) [Compound 5]	%	67.6
CCCCCCCCCCCC(=O)Oc1c2c(c(OC(=O)CCCCCCCCCCC)c3c1C(=O)C1(CCc4cc5cc(CCCCC)[nH]c(=O)c5c(O)c41)C3=O)C(=O)C(OC)=CC2=O (stereo not shown) [Compound 21]	%	87.3

Moving on to the next molecule.
Query: Suppose we examine the molecule CCCCCc1cc2cc3c(c(O)c2c(=O)[nH]1)C1(CC3)C(=O)c2c(c(OC(C)=O)c3c(OC(C)=O)c(OC)cc(OC(C)=O)c3c2OC(C)=O)C1=O (stereo not shown) [Compound 12] ; what remaining at 24 h value has been reported?
Reply: 97.1
